- protocol_description: Displacement of [3H]-Ro- 15-4513 from alpha-1-beta-2-gamma-2 GABA-A receptor subunits expressed in Sf9 cell membranes
- Set-up: species or system Rattus norvegicus
Listing of recorded Ki by entry.
property: Ki (nM)

# molecule, result_modifier, test_value
data = [
    ("CC(=O)N1Cc2c(-c3noc(C4CC4)n3)ncn2-c2ccc(F)cc21", "=", 81),
    ("O=C(c1ccccc1)N1Cc2c(-c3noc(C4CC4)n3)ncn2-c2cccc(F)c21", "=", 681),
    ("CC(C)(C)OC(=O)c1ncn2c1C1CCC(=O)N1c1ccccc1-2 (configuration not stated)", "=", 13.2),
    ("CC(=O)N1Cc2c(-c3noc(C4CC4)n3)ncn2-c2cccc(F)c21", "=", 107),
    ("CC(=O)N1Cc2c(-c3noc(C4CC4)n3)ncn2-c2ccccc21", "=", 124),
    ("O=C(c1ccccc1)N1Cc2c(-c3noc(C4CC4)n3)ncn2-c2ccc(F)cc21", ">", 10000),
    ("O=C(c1ccccc1)N1Cc2c(-c3noc(C4CC4)n3)ncn2-c2ccccc21", "=", 1140),
]
